Answer each item with its documented IC50.
TARGET UNDER TEST: Y641N EZH2 (Homo sapiens, UniProt Q15910, Y641N)
Sequence (Q15910 whole entry Y641N): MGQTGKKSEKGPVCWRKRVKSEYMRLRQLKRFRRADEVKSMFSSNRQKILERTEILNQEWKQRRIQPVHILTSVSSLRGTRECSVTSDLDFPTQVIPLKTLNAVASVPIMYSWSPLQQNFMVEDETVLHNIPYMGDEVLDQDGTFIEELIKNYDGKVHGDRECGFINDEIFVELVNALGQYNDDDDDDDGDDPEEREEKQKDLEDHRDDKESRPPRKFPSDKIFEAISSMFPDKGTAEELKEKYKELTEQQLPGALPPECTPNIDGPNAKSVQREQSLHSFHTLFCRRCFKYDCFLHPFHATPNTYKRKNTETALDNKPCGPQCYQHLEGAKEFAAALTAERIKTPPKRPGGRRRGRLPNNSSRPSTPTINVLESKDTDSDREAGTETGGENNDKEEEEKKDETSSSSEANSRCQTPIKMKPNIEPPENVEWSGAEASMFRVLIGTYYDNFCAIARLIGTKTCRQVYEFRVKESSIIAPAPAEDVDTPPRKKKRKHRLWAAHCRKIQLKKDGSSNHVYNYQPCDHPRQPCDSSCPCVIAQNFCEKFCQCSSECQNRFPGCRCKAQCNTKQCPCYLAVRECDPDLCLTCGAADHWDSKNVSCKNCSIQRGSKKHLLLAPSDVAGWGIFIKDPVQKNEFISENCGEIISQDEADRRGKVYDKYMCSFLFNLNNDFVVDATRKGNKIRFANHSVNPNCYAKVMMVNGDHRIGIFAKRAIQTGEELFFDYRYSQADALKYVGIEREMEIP
Sequence (O75530 whole entry partner): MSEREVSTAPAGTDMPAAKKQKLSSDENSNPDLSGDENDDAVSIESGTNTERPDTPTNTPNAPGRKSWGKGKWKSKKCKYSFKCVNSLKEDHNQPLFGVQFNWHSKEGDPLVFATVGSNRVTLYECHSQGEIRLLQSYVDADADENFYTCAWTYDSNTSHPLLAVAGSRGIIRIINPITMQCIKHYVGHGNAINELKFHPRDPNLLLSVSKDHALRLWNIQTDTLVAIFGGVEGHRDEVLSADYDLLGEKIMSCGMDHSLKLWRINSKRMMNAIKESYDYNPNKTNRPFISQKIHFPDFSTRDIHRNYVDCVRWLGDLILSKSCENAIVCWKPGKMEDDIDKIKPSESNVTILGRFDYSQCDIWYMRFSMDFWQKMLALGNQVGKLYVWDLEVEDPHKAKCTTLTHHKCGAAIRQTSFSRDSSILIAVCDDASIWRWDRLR
Sequence (Q15022 whole entry partner): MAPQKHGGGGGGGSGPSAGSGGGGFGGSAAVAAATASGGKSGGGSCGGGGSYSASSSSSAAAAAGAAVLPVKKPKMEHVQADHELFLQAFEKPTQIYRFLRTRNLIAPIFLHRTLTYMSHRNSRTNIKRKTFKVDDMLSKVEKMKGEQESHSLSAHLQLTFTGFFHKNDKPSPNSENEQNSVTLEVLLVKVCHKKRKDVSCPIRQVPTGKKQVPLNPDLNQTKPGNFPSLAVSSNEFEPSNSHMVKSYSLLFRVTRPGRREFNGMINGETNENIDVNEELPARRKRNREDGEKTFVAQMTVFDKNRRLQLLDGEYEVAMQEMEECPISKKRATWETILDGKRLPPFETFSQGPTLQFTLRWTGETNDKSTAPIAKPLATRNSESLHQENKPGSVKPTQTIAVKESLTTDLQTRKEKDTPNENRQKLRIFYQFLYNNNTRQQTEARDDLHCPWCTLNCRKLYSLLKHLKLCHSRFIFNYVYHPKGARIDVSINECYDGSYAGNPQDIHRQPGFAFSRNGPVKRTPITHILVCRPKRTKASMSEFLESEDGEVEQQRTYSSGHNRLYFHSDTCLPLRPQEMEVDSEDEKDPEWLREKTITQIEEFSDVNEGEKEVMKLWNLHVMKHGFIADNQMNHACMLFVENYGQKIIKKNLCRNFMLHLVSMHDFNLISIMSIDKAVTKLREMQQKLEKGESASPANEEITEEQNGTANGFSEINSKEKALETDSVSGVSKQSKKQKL
ASSAY EXPLANATION: Y641N EZH2 assay: as EZH2 assay, with reconstituted H3K27Me2 oligonucleosomes as substrate
Format: biochemical
ASSAY CONDITIONS: Y641N mutant EZH2, H3K27Me2 oligonucleosome substrate; read-out: Y641N EZH2 IC50

Looking for the measured IC50 of COc1cc(C)[nH]c(=O)c1CNC(=O)c1c(C)n(C(C)C2CCN(S(C)(=O)=O)CC2)c2ncncc12 (stereo not shown) [Compound 370] , can you help? < 100 nM

What do you get for Cc1cc(C)c(CNC(=O)c2cnn(-c3ccccc3)c2C)c(=O)[nH]1 [Compound 100] ? > 10000 nM

What do you get for COCC(C)n1c(C)c(C(=O)NCc2c(C)cc(C)[nH]c2=O)c2scnc21 (racemic) [Compound 254] ? 100 to 1000 nM

What do you get for COc1cc(C)[nH]c(=O)c1CNC(=O)c1c(C)n(-c2cccc3ncccc23)c2ccccc12 [Compound 330] ? < 100 nM
